Values from paper PMC5700166

- study.target: GST-Hu-p50 (Homo sapiens, UniProt P19838 7-356)
- Sequence (P19838 7-356): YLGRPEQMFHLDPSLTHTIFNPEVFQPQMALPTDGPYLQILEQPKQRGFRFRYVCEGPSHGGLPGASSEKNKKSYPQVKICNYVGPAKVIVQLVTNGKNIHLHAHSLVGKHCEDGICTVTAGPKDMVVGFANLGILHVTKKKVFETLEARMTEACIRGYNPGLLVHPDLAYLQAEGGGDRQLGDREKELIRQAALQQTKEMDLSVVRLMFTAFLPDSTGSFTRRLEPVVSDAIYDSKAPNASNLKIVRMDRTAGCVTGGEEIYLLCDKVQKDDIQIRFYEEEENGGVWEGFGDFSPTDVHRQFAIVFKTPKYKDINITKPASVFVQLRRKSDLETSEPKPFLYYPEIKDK
- protocol.notes: protein-binding microarray (PBM); PBM: ~300 nM protein, 6 mM HEPES pH 7.8, 80 mM KCl, 0.5 mM EDTA, 0.5 mM EGTA, 6% glycerol, 35 ng/ul poly-dIdC, 1% milk, 1 h, room temperature; Ap Aiptasia and Nv Nematostella (sea anemones) / Co Capsaspora / Aq Amphimedon (sponge) / Dm Drosophila / Hu human; RHD is the Rel homology domain; high values mean tight binding
- run.parameters: dsDNA, one strand shown
The label is Fulfilled for binding signal below 2 z-score and Not fulfilled for binding signal equal to or exceeding 2 z-score.

Some entries whose results are on file:
>>> assigned_label("CCGATTAACATCACGGTACGGGGTGATGTTAATCGGGTCTTGATTCGCTTGACGCTGCTG")
"Fulfilled"
>>> assigned_label("CCGATTAACATCAAAAATTTTCCTGATGTTAATCGGGTCTTGATTCGCTTGACGCTGCTG")
"Not fulfilled"
>>> assigned_label("CCGATTAACATCAAGGCATTCCCTGATGTTAATCGGGTCTTGATTCGCTTGACGCTGCTG")
"Fulfilled"
>>> assigned_label("CCGATTAACATCAGGGGGATGTATGATGTTAATCGGGTCTTGATTCGCTTGACGCTGCTG")
"Not fulfilled"
>>> assigned_label("CCGATTAACATCATGGGGTGTGCTGATGTTAATCGGGTCTTGATTCGCTTGACGCTGCTG")
"Fulfilled"

Task: Is 2 z-score strictly greater than the sequence's reported binding signal? sequence: CCGATTAACATCACATGTTCCCCTGATGTTAATCGGGTCTTGATTCGCTTGACGCTGCTG
Output: Not fulfilled

Task: Is 2 z-score strictly greater than the sequence's reported binding signal? sequence: CCGATTAACATCAGTATTCCCCATGATGTTAATCGGGTCTTGATTCGCTTGACGCTGCTG
Output: Not fulfilled

Task: Is 2 z-score strictly greater than the sequence's reported binding signal? sequence: CCGATTAACATCAGGAAAACCCATGATGTTAATCGGGTCTTGATTCGCTTGACGCTGCTG
Output: Not fulfilled

Task: Is 2 z-score strictly greater than the sequence's reported binding signal? sequence: CCGATTAACATCACGTATTTCCCTGATGTTAATCGGGTCTTGATTCGCTTGACGCTGCTG
Output: Not fulfilled

Task: Is 2 z-score strictly greater than the sequence's reported binding signal? sequence: CCGATTAACATCAGGGTTTTCCATGATGTTAATCGGGTCTTGATTCGCTTGACGCTGCTG
Output: Not fulfilled

Task: Is 2 z-score strictly greater than the sequence's reported binding signal? sequence: CCGATTAACATCAAAAAAGACCCTGATGTTAATCGGGTCTTGATTCGCTTGACGCTGCTG
Output: Not fulfilled

Task: Is 2 z-score strictly greater than the sequence's reported binding signal? sequence: CCGATTAACATCACAATAACGGGTGATGTTAATCGGGTCTTGATTCGCTTGACGCTGCTG
Output: Fulfilled
